Data provenance: patent US20170296640A1

system-under-test: T1, HLA-A*02:01 (peptide-receptive MHC class I monomer after UV cleavage of the UV-sensitive ligand) (human)
T1 construct: MHC monomers loaded by UV-ligand exchange and captured on streptavidin plates
run-description: UV ligand-exchange ELISA; exchange yield grade (+ >=10%, ++ >=20%, +++ >=50%, ++++ >=75%)
Parameter peptide exchange yield: see the listing below.

Guide cases for peptide exchange yield, answers given:
{"binder": "LIDDKGTIKL [LIDDKGTIKL (SEQ ID NO: 314)]", "peptide exchange yield": "20 to 50%"}
{"binder": "SLSHLVPAL [SLSHLVPAL (SEQ ID NO: 189)]", "peptide exchange yield": "50 to 75%"}

Report peptide exchange yield for GLQDLLFSL [GLQDLLFSL (SEQ ID NO: 56)] please.
50 to 75%
